This listing pairs compounds with measured IC50.
- system_under_test: human ROCKα/ROCKII mix (Homo sapiens)
- Construct: purchased Upstate Biotechnology 14-451
- Sequence (O75116 11-552 limits assumed): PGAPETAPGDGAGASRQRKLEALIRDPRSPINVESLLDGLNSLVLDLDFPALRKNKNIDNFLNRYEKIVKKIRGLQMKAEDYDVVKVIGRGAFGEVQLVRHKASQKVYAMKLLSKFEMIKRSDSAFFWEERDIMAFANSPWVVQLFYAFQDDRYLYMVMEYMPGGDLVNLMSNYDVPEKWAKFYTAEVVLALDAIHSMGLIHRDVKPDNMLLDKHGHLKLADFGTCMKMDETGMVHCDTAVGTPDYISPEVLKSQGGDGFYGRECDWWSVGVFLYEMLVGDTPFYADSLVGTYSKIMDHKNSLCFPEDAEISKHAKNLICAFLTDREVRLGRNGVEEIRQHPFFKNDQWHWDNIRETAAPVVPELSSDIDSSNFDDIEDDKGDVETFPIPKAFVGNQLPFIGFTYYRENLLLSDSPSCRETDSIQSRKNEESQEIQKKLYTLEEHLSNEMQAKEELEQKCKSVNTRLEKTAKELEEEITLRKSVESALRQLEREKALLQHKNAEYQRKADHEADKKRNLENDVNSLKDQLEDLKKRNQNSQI
- assay: Biochemical assay for ROCK (fluorescence polarization, ROCK IMAP Kit)
- Procedure: The compounds were tested for inhibition of human ROCKα/ROCKII mix. The inhibition assays were performed with a fluorescence polarization (FP) assay using the commercially available ROCK IMAP Kit from Molecular Devices (Product ID. No. R8093), essentially in accordance with the protocol supplied by the manufacturer. […] The enzyme mix ROCKα/ROCKII was obtained from Upstate Biotechnology (Product ID No 14-451). […]

IN: Any idea what IC50 was measured for NC(c1ccc(C(=O)Nc2ccncc2)cc1)C1CCCN1C(=O)C1(c2ccc(Cl)c(Cl)c2)CC1 (stereo not shown) [Compound 594] ?
OUT: 0.5 to 5 µM

IN: Then this compound: NC(c1ccc(C(=O)Nc2ccncc2)cc1)C1CCCN1C(=O)C1CCSc2ccccc21 (stereo not shown) [Compound 618]
OUT: 0.5 to 5 µM

IN: How about this compound: CN(CC(N)c1ccc(C(=O)Nc2ccncc2)cc1)C(=O)Cc1ccc(F)c(F)c1 (stereo not shown) [Compound 484]
OUT: 0.5 to 5 µM

Further cases:
IN: Field request: IC50 | item: NC(c1ccc(C(=O)Nc2ccncc2)cc1)C1CCCN1C(=O)Cc1ccc(F)cc1F (stereo not shown) [Compound 580]
OUT: 0.05 to 0.5 µM
